Biological target: UniProt:P10635
Sequence (P10635 whole entry): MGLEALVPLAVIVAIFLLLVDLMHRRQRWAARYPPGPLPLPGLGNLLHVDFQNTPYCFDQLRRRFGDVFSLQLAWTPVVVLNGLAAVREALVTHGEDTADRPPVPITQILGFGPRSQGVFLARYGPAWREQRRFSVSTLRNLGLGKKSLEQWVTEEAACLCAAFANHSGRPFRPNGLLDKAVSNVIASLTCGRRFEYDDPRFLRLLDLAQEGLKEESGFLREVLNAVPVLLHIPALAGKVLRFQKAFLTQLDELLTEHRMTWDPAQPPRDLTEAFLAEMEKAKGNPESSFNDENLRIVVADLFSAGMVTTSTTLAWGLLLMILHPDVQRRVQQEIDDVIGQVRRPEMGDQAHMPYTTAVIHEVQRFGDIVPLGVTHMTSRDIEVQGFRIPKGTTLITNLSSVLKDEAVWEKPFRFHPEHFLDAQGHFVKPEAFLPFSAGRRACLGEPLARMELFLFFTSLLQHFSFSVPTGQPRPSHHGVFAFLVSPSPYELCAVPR
pIC50: −log10 of the molar value.
assay endpoint: pIC50

Solved entries:
O=C(O)CC1(c2ccccc2)CCCN(C(=O)Nc2ccc(Cl)cc2)C1 (stereo not given) | < 5.00
O=C(O)CCC1(c2ccncc2)CCCN(C(=O)Nc2ccc(Cl)cc2)C1 (stereo not given) | < 5.00
O=C(O)CCC1(c2ccccc2)CCCN(C(=O)Nc2ccc(Cl)cc2)C1 (stereo in doubt) | < 4.00

Which value of pIC50 has been reported for CC1(c2ccccc2)CCCN(C(=O)NCc2ccc(-c3ccccc3C(F)(F)F)cc2)C1 (stereo not given) in the records?
< 5.00

Same question, O=C(O)CCC1(c2cccc(C(F)(F)F)c2)CCCN(C(=O)Nc2ccc(Cl)cc2)C1 (stereo not given) this time
< 5.00

Same question, O=C(O)CCC1(c2ccccc2)CCCN(C(=O)Nc2ccc(Cl)cc2)C1 (stereo in doubt; 2b) this time
< 5.00

Same question, O=C(Nc1ccc(Cl)cc1)N1CCCC(CCO)(c2ccccc2)C1 (stereo not given) this time
5.00

Same question, O=C(O)CCC1(c2ccccc2C(F)(F)F)CCCN(C(=O)Nc2ccc(Cl)cc2)C1 (stereo not given) this time
< 5.00

Same question, CC1(c2ccccc2)CCCN(C(=O)NCCCc2cccnc2)C1 (stereo not given) this time
< 5.00

Same question, CC1(c2ccccc2)CCCN(C(=O)NCc2ccc(-c3ccc4[nH]ccc4c3)cc2)C1 (stereo not given) this time
5.00

* * *

Target: Sodium channel protein type 5 subunit alpha (Homo sapiens)
Sequence (Q14524 whole entry): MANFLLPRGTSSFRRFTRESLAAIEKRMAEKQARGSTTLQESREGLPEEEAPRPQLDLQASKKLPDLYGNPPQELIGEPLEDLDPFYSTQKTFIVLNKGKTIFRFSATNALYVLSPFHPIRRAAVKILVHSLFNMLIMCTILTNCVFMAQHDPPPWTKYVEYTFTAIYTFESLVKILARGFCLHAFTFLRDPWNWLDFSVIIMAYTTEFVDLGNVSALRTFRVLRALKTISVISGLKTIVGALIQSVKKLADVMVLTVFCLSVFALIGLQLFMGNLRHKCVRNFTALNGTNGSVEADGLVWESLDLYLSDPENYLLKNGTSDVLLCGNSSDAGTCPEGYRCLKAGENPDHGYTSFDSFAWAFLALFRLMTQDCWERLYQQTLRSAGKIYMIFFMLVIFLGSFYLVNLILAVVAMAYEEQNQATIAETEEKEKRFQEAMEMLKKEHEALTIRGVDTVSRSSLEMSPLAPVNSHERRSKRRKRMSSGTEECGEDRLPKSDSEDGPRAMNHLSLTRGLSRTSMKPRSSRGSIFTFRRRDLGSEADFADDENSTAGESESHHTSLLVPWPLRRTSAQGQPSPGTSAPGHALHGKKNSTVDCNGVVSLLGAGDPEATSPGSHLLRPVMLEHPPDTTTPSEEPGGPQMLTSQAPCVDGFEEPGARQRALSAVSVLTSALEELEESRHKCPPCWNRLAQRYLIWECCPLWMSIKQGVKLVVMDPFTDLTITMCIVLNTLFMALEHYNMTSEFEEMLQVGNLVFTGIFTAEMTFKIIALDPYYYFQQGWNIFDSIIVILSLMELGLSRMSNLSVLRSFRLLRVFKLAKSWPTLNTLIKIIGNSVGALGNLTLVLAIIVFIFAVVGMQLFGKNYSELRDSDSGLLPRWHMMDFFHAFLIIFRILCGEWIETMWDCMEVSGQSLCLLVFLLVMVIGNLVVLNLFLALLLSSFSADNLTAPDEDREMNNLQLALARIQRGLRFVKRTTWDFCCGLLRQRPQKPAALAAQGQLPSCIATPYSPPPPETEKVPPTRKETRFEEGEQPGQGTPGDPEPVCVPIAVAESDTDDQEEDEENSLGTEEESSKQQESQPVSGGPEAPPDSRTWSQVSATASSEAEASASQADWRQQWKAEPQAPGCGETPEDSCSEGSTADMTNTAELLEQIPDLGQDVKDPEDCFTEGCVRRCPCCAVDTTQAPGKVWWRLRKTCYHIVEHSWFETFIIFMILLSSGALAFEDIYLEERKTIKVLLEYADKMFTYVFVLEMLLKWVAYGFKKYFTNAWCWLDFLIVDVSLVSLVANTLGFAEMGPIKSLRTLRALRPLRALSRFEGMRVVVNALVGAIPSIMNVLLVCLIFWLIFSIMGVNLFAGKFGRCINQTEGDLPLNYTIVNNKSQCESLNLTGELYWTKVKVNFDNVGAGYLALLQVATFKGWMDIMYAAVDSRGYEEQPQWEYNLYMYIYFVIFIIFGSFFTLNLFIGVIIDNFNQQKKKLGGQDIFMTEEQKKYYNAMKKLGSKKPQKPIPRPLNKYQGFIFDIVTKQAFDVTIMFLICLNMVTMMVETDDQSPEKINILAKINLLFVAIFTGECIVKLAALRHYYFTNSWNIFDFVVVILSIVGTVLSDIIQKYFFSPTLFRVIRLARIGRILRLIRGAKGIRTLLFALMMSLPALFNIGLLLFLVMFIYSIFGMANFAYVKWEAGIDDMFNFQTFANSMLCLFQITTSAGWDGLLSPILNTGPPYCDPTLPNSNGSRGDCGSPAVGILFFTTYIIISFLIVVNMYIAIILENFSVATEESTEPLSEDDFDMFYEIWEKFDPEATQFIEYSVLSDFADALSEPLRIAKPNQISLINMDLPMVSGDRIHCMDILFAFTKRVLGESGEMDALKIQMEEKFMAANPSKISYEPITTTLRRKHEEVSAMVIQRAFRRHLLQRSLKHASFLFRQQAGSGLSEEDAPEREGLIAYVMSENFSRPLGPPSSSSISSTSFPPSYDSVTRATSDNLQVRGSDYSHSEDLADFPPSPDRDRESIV
Assay: Inhibition of Nav1.5 channel
assay endpoint: IC50

O=C(Nc1ccc(Cl)cc1)N1CCCC(CCO)(c2ccccc2)C1 (stereo unspecified) | > 10 µM
CC1(c2ccccc2)CCCN(C(=O)Nc2noc3ccccc23)C1 (stereo unspecified) | < 10 µM
O=C(O)CCC1(c2ccccc2)CCCN(C(=O)Nc2ccc(Cl)cc2)C1 (stereo in doubt) | > 10 µM
CC1(c2ccccc2)CCCN(C(=O)N[C@H]2C[C@@H]2c2ccccc2)C1 (stereo partly specified) | > 10 µM
O=C(CCC1(c2ccccc2)CCCN(C(=O)Nc2ccc(Cl)cc2)C1)N1CCOCC1 (stereo unspecified) | > 10 µM
O=C(O)CCC1(c2ccncc2)CCCN(C(=O)Nc2ccc(Cl)cc2)C1 (stereo unspecified) | > 10 µM

Which value of IC50 has been reported for CN(C)CCC1(c2ccccc2)CCCN(C(=O)Nc2ccc(Cl)cc2)C1 (stereo unspecified) in the records?
> 10 µM

Same question, CC1(c2ccccc2)CCCN(C(=O)Nc2ccc(Cl)cc2)C1 (stereo unspecified) this time
> 10 µM

Same question, CC1(c2ccccc2)CCCN(C(=O)NCc2ccc(Cl)cc2Cl)C1 (stereo unspecified) this time
< 10 µM

* * *

IC50 by entry:
Molecular target: Cytochrome P450 2C9 (Homo sapiens, UniProt P11712)
Sequence (P11712 whole entry): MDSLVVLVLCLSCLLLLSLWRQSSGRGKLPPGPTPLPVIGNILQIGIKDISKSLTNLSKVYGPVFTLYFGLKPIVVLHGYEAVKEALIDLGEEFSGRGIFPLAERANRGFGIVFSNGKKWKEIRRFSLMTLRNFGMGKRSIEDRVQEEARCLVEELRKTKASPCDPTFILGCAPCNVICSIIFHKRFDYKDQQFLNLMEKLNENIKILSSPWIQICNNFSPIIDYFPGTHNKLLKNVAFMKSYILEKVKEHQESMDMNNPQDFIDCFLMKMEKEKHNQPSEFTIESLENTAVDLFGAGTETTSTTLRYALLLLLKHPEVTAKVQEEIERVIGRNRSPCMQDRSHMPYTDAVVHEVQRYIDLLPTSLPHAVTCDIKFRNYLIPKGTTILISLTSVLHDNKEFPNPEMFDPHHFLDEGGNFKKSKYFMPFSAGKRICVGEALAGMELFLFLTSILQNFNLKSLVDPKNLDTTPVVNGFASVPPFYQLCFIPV

Which value of IC50 has been reported for O=C(O)CCC1(c2cccc(C(F)(F)F)c2)CCCN(C(=O)Nc2ccc(Cl)cc2)C1 (stereo not given) in the records?
> 10 µM

Same question, CC1(c2ccccc2)CCCN(C(=O)Nc2noc3ccccc23)C1 (stereo not given) this time
< 10 µM

Same question, CC1(c2ccccc2)CCCN(C(=O)NCCc2ccc3nccnc3c2)C1 (stereo not given) this time
< 10 µM

Same question, CC1(c2ccccc2)CCCN(C(=O)NCc2ccc(Cl)cc2Cl)C1 (stereo not given) this time
> 10 µM

Same question, O=C(O)CCC1(c2ccc(-c3ccccc3)cc2)CCCN(C(=O)Nc2ccc(OC(F)(F)F)cc2)C1 (stereo not given) this time
< 10 µM

Same question, O=C(Nc1ccc(Cl)cc1)N1CCCC(CCCO)(c2ccccc2)C1 (stereo not given) this time
< 10 µM
